Below, each entry is listed alongside its reported EC50.
System Under Test: Oxysterols receptor LXR-beta (Homo sapiens, UniProt P55055)
Sequence (P55055 whole entry): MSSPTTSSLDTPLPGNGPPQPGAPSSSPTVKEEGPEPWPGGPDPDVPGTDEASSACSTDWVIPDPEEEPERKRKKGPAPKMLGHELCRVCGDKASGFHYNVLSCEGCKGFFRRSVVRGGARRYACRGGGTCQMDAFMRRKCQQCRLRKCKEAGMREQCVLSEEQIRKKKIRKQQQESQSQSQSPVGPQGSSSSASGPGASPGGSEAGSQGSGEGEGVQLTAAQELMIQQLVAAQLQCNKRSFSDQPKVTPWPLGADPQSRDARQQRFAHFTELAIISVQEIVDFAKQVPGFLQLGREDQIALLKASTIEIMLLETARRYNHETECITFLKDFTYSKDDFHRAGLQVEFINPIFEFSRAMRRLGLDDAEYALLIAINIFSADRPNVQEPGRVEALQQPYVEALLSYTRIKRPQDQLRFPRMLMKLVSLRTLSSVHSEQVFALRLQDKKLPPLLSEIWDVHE
Assay Explanation: Agonist activity at human LXR-beta expressed in African green monkey CV1 cells measured after 18 to 20 hrs by luciferase reporter gene assay
Assay type: cell-based, CV-1
Respond with the bare value in nM.

Example entries begin here.
>>> measured_number("CC(C)(O)c1cn(-c2ccc(-c3cc(F)c(CO)c(S(C)(=O)=O)c3)cc2F)c(C(C)(C)c2c(Cl)cccc2Cl)n1")
24
>>> measured_number("CC(C)(O)c1cn(-c2ccc(-c3ccc(CO)c(S(C)(=O)=O)c3)cc2)c(Cc2ccccc2Cl)n1")
60
>>> measured_number("CC(C)(O)c1cn(-c2ccc(-c3cc(F)c(CO)c(S(C)(=O)=O)c3)cc2F)c(C(C)(C)c2ccccc2Cl)n1")
50
>>> measured_number("CC(C)(O)c1cn(-c2ccc(-c3cc(F)c(CO)c(S(C)(=O)=O)c3)cc2)c(C(C)(C)c2ccccc2F)n1")
160

Let's switch to this molecule now.
Q: Please look up its EC50: `CC(C)(O)c1cn(-c2ccc(-c3cc(F)c(CO)c(S(C)(=O)=O)c3)cc2Cl)c(C(C)(C)c2c(Cl)cccc2Cl)n1`
Result: 27

Reference for the values: ChEMBL document CHEMBL3867488
